ΔTm by entry:
- Experimental System: Cyclin-dependent kinase 2 (Homo sapiens)
- Recorded Conditions: Compound concentration 20.0 uM, Protein concentration 2.0 uM, Result type QC Liability
- Description: Thermal Shift Assay. Domain: start/stop: M1-L298
Measure: ΔTm (°C)

INSERT INTO assay_data (compound, measure, scale_unit, recorded_number) VALUES
  ('N=C(N)NCCC[C@H](NC(=O)C(c1ccccc1)c1ccccc1)C(=O)NCc1ccc(CNC(N)=O)cc1', 'ΔTm', '°C', 0.46),
  ('CNC(=O)c1cc(C(=O)N[C@H]2[C@@H]3COC[C@@H]32)cc2c1O[C@H](CF)[C@H]2c1ccccc1', 'ΔTm', '°C', 0.34),
  ('O=C(Cc1ccccc1)Nc1nnc(N2CC[C@@H]3[C@H]2CN3c2cccnn2)s1', 'ΔTm', '°C', 0.43),
  ('Cn1cc(C(=O)O)c2ccc(N3CCC(OCc4c(-c5c(Cl)cccc5Cl)noc4C4CC4)CC3)cc21', 'ΔTm', '°C', 0.93),
  ('C1=Cc2ccccc2C(=C2CCN(CCCCc3nnn[nH]3)CC2)c2ccccc21', 'ΔTm', '°C', 0.18),
  ('CN1CCCN(C(=O)c2cccc(-c3ccc(/C=C4/C(=O)Nc5ccc(Cl)cc54)o3)c2)CC1', 'ΔTm', '°C', 2.38),
  ('Cc1c(CN2CCC3(CC2)CN(c2ncnc4sc(CC(F)(F)F)cc24)C3)ccc2c1cc(C#N)n2CC(N)=O', 'ΔTm', '°C', -0.01),
  ('O=C1Nc2ccc(I)cc2/C1=C/c1cc(Br)c(O)c(Br)c1', 'ΔTm', '°C', 0.35),
  ('COc1ccc(C(F)(F)F)cc1NC(=O)Nc1ccc(Oc2cc(C)nc(N)n2)c2ccccc12', 'ΔTm', '°C', 1.11),
  ('O=C(Nc1cc2cc[nH]c(=O)c2cc1Cl)[C@H]1CNC[C@@H]1c1cccnc1', 'ΔTm', '°C', 0.53),
  ('CC1(C)CCC(CN2CCN(c3ccc(C(=O)NS(=O)(=O)c4ccc(NCC5CCOCC5)c([N+](=O)[O-])c4)c(Oc4cnc5[nH]ccc5c4)c3)CC2)=C(c2ccc(Cl)cc2)C1', 'ΔTm', '°C', 1.18),
  ('O=C(Nc1cccc(Nc2nccc(Nc3cccc(C(F)(F)F)c3)n2)c1)C1CC1', 'ΔTm', '°C', 1.44),
  ('CCc1ncnc(N2CCN(C(C)=O)CC2)c1C#Cc1ccc(N)nc1', 'ΔTm', '°C', 0.16),
  ('N#C/C(=C\c1ccc(O)c(O)c1)C(=O)OCCc1cccs1', 'ΔTm', '°C', 1.1),
  ('CC(C)c1cnc(NC(=O)Cc2ccccc2)s1', 'ΔTm', '°C', 4.66),
  ('C[C@H](CCOc1cccc(CC(=O)O)c1)N(Cc1cccc(C(F)(F)F)c1Cl)CC(c1ccccc1)c1ccccc1', 'ΔTm', '°C', 1.5),
  ('CC(C)(O)c1cn(-c2ccc(-c3cccc(S(C)(=O)=O)c3)cc2)c(C(C)(C)c2ccccc2Cl)n1', 'ΔTm', '°C', 0.08),
  ('CC(C)(C#Cc1ccc(NC(=O)COc2ccccc2C(=O)c2ccccc2)c(Cl)c1)C(=O)O', 'ΔTm', '°C', -1.47),
  ('CCOC(=O)CS(=O)(=O)c1ccc([C@@H](CO)NC(=O)c2cc3c(Cl)c(Cl)c(C)cc3n2C)cc1', 'ΔTm', '°C', 0.21),
  ('CCCCOc1c(C(=O)c2c(F)cc(C)cc2F)c[nH]c2nncc1-2', 'ΔTm', '°C', 2.95),
  ('Cc1cc(-c2cc3ncccc3c(OC[C@H]3CCCNC3)n2)ccc1N(C)C', 'ΔTm', '°C', 0.38),
  ('C[C@@H](COCCC(=O)N1CCN(c2ncc(C(F)(F)F)cn2)CC1)Nc1cn[nH]c(=O)c1C(F)(F)F', 'ΔTm', '°C', 0.9),
  ('COc1ccc(S(=O)(=O)N2CCOCC2)cc1Nc1ccc2c(n1)N(C1CCOCC1)[C@H](C)C(=O)N2C', 'ΔTm', '°C', 0.41),
  ('CN1C(=O)c2c(nn(Cc3ccc(-c4cccc(F)n4)cc3)c2Nc2ccccc2)N2C1=N[C@@H]1CCC[C@@H]12', 'ΔTm', '°C', 0),
  ('CNC(=O)c1cc(C(=O)N[C@H]2[C@@H]3COC[C@@H]32)cc2c1O[C@@H](CF)[C@@H]2c1ccccc1', 'ΔTm', '°C', 0.5),
  ('Cc1cnc(-c2cnc(NCCNc3ccc(C#N)cn3)nc2-c2ccc(Cl)cc2Cl)[nH]1', 'ΔTm', '°C', 1.98),
  ('CN(C)CC#Cc1ccc2[nH]c3c(c2c1)-c1nc(N)ncc1CCC3', 'ΔTm', '°C', -0.08),
  ('Cc1cc2c(ncn2C2(C)CN(C(=O)c3ccn(CC4CCN([C@H]5C=CCCCC5)CC4)c3)C2)c(N)n1', 'ΔTm', '°C', 1.09),
  ('CC(C)C(=O)N1CCC(c2cn(C)c3ncc(NC(=O)c4cccc(C#N)c4)c(C(F)(F)F)c23)CC1', 'ΔTm', '°C', 0.71),
  ('Cc1cc(C)nc(Nc2ncc(C(=O)NCCc3c(C)[nH]c4ccccc34)cn2)c1', 'ΔTm', '°C', 0.75),
  ('COc1c(-c2cn(C3CCC(=O)NC3=O)nn2)csc1C(=O)N1CCCC1 (stereo unspecified)', 'ΔTm', '°C', 0.04),
  ('CCCCC[C@H](O)/C=C/[C@H]1[C@H](O)CC(=O)[C@@H]1CCCCCCC(=O)O', 'ΔTm', '°C', 0.43),
  ('CCc1c(-c2ccc3[nH]ncc3c2)cnc(N)c1-c1ccc(O)cc1', 'ΔTm', '°C', 2.8),
  ('CCOC(=O)c1ccc(CN(Cc2ccc(-c3cccc(S(C)(=O)=O)c3)cc2)S(=O)(=O)c2c(C)cc(C)cc2C)o1', 'ΔTm', '°C', -2),
  ('CCN(C(=O)c1cc(F)ccc1Oc1cncnc1N1CC2(CCN(C[C@H]3CC[C@H](NS(=O)(=O)CC)CC3)CC2)C1)C(C)C', 'ΔTm', '°C', 0.94),
  ('O=C(CNCc1cc2ccccc2[nH]1)N[C@H]1CC[C@@H](c2nc3ccccc3[nH]2)CC1', 'ΔTm', '°C', 0.52);
